test system: K562 human chronic myeloid leukaemia cells; assay: K562 assay (MTT cytotoxicity of released compounds); assay type: cell-based; details: drug incubation 1 hour or 96 hours (not specified which)
measuredParameter: IC50
Give the number first and the unit second.

Need IC50, item COc1cc2c(cc1OCCCOc1cc3c(cc1OC)C(=O)N1C=C(C)C[C@H]1C=N3)N=C[C@@H]1CC(C)=CN1C2=O [Compound RelE]
0.425 nM
